# protocol text: The drug is tested on Z-024 corresponding to pig gut metagenome with ENA study accession number: PRJEB37062 and ENA sample accession number: ERS12561823 for biotransformation under anaerobic condition. The drug concentrations were measured over 9 timepoints collected between 0 and 24 hours of incubation by liquid-chromatography-coupled mass spectrometry (LC–MS); further: call rule not given here
# condition set: 2 µM
property label: Bacterial Biotransformation

Observe how each entry below is paired with its result.
compound | Bacterial Biotransformation
CC(C(=O)O)c1ccc2c(c1)Cc1cccnc1O2 (stereo not drawn) | Compound NOT metabolized
CCC1(c2ccc(N)cc2)CCC(=O)NC1=O (stereo not drawn) [AMINOGLUTETHIMIDE] | Compound metabolized
CCCc1nn(C)c2c(=O)[nH]c(-c3cc(S(=O)(=O)N4CCN(C)CC4)ccc3OCC)nc12.O=C(O)CC(O)(CC(=O)O)C(=O)O [SILDENAFIL CITRATE] | Compound metabolized
CCN(CC)CCOCCOC(=O)C1(c2ccccc2)CCCC1.O=C(O)CC(O)(CC(=O)O)C(=O)O [CARBETAPENTANE CITRATE] | Compound metabolized
C[C@@H]1CC[C@H]2[C@@H](C)C(=O)O[C@@H]3O[C@@]4(C)CC[C@@H]1[C@]32OO4 | Compound metabolized
CCCCc1nc(Cl)c(CO)n1Cc1ccc(-c2ccccc2-c2nn[nH]n2)cc1 | Compound NOT metabolized

Name the recorded Bacterial Biotransformation for CS(=O)(=O)O.OC(CCN1CCCCC1)(c1ccccc1)c1ccccc1 [PRIDINOL METHANESULFONATE] .
Compound NOT metabolized

Try this compound too: O=c1[nH]c2ccccc2n1CCCN1CCC(n2c(=O)[nH]c3cc(Cl)ccc32)CC1
Compound NOT metabolized

* * *

# condition set: human gut metagenome, 24 h, 2 µM
property label: Bacterial Biotransformation

Observe how each entry below is paired with its result.
molecule | Bacterial Biotransformation
CCCc1nn(C)c2c(=O)[nH]c(-c3cc(S(=O)(=O)N4CCN(C)CC4)ccc3OCC)nc12.O=C(O)CC(O)(CC(=O)O)C(=O)O [SILDENAFIL CITRATE] | Compound NOT metabolized
CC[C@@H](CO)NC(=O)[C@@H]1C=C2c3cccc4c3c(cn4C)C[C@H]2N(C)C1.O=C(O)/C=C\C(=O)O [METHYSERGIDE MALEATE] | Compound NOT metabolized
CN1CCN(C2=Nc3cc(Cl)ccc3Nc3ccccc32)CC1 | Compound metabolized
CCCCc1nc(Cl)c(CO)n1Cc1ccc(-c2ccccc2-c2nn[nH]n2)cc1 | Compound metabolized
C[C@@H](CO)NC(=O)[C@@H]1C=C2c3cccc4[nH]cc(c34)C[C@H]2N(C)C1.O=C(O)/C=C\C(=O)O [ERGONOVINE MALEATE] | Compound NOT metabolized

Name the recorded Bacterial Biotransformation for CNC(=C[N+](=O)[O-])NCCSCc1ccc(CN(C)C)o1 .
Compound NOT metabolized

Try this molecule too: CN(C(=O)CN(CCO)CC(=O)N(C)C(C)(C)Cc1ccccc1)C(C)(C)Cc1ccccc1
Compound metabolized

* * *

# condition set: human gut metagenome, 24 h, 2 µM
property label: Bacterial Biotransformation

compound | Bacterial Biotransformation
CC(C)N(CCC(C(N)=O)(c1ccccc1)c1ccccn1)C(C)C.O=P(O)(O)O (configuration not stated) [DISOPYRAMIDE PHOSPHATE] | Compound NOT metabolized
CC(O)(CS(=O)(=O)c1ccc(F)cc1)C(=O)Nc1ccc(C#N)c(C(F)(F)F)c1 (configuration not stated) [BICALUTAMIDE] | Compound NOT metabolized
CC(C)NCC(O)c1ccc(NS(C)(=O)=O)cc1 (configuration not stated) | Compound NOT metabolized
Fc1ccc([C@@H]2CCNC[C@H]2COc2ccc3c(c2)OCO3)cc1 | Compound metabolized
Clc1ccc(Cn2c(CN3CCCC3)nc3ccccc32)cc1 | Compound metabolized

Name the recorded Bacterial Biotransformation for CCOC(=O)[C@H](CCc1ccccc1)N[C@@H](C)C(=O)N1[C@H](C(=O)O)C[C@H]2CCCC[C@@H]21 .
Compound NOT metabolized

Try this compound too: CCN(CC)CC#CCOC(=O)C(O)(c1ccccc1)C1CCCCC1.Cl (configuration not stated) [OXYBUTYNIN CHLORIDE]
Compound NOT metabolized

Try this compound too: CN1CCC(=C2c3ccccc3CCc3cccnc32)CC1.O=C(O)/C=C\C(=O)O.O=C(O)/C=C\C(=O)O [AZATADINE MALEATE]
Compound NOT metabolized

Try this compound too: CC(C)(C)NC[C@H](O)COc1ccccc1C1CCCC1.CC(C)(C)NC[C@H](O)COc1ccccc1C1CCCC1.O=S(=O)(O)O [PENBUTOLOL SULFATE]
Compound metabolized

Try this compound too: CCCc1nn(C)c2c(=O)[nH]c(-c3cc(S(=O)(=O)N4CCN(C)CC4)ccc3OCC)nc12.O=C(O)CC(O)(CC(=O)O)C(=O)O [SILDENAFIL CITRATE]
Compound metabolized

Try this compound too: CCc1nn(CCCN2CCN(c3cccc(Cl)c3)CC2)c(=O)n1CCOc1ccccc1
Compound NOT metabolized

Try this compound too: COC(=O)Nc1nc2ccc(C(=O)c3ccccc3)cc2[nH]1
Compound metabolized

Try this compound too: Nc1c2c(nc3ccccc13)CCCC2
Compound NOT metabolized

* * *

# protocol text: The drug is tested on Z-022 corresponding to mouse gut metagenome with ENA study accession number: PRJEB37062 and ENA sample accession number: ERS12561821 for biotransformation under anaerobic condition. The drug concentrations were measured over 9 timepoints collected between 0 and 24 hours of incubation by liquid-chromatography-coupled mass spectrometry (LC–MS)
# condition set: 2 µM
property label: Bacterial Biotransformation

Observe how each entry below is paired with its result.
compound | Bacterial Biotransformation
CCN(CC)CCNC(C(=O)OCCC(C)C)c1ccccc1.Cl.Cl (stereo not drawn) | Compound metabolized
CN(C)CCC=C1c2ccccc2C=Cc2ccccc21 | Compound NOT metabolized
CCCC1O[C@@H]2C[C@H]3[C@@H]4CCC5=CC(=O)C=C[C@]5(C)[C@H]4[C@@H](O)C[C@]3(C)[C@]2(C(=O)CO)O1 (stereo partly drawn) [BUDESONIDE] | Compound NOT metabolized
COCCc1ccc(OCC(O)CNC(C)C)cc1.COCCc1ccc(OCC(O)CNC(C)C)cc1.O=C(O)C(O)C(O)C(=O)O (stereo not drawn) [METOPROLOL TARTRATE] | Compound NOT metabolized
COC(=O)Nc1nc2ccc(C(=O)c3ccccc3)cc2[nH]1 | Compound metabolized
CC(O)(CS(=O)(=O)c1ccc(F)cc1)C(=O)Nc1ccc(C#N)c(C(F)(F)F)c1 (stereo not drawn) [BICALUTAMIDE] | Compound NOT metabolized

Name the recorded Bacterial Biotransformation for O=C(Nc1ccccc1)OCC(CN1CCCCC1)OC(=O)Nc1ccccc1 (stereo not drawn) .
Compound NOT metabolized

Try this compound too: CN1CCc2cccc3c2[C@H]1Cc1ccc(O)c(O)c1-3
Compound NOT metabolized

* * *

# protocol text: The drug is tested on Z-017 corresponding to mouse gut metagenome with ENA study accession number: PRJEB37062 and ENA sample accession number: ERS12561816 for biotransformation under anaerobic condition. The drug concentrations were measured over 9 timepoints collected between 0 and 24 hours of incubation by liquid-chromatography-coupled mass spectrometry (LC–MS)
# condition set: 2 µM
property label: Bacterial Biotransformation

Observe how each entry below is paired with its result.
compound | Bacterial Biotransformation
CN1C(=O)CCS(=O)(=O)C1c1ccc(Cl)cc1 (stereo not drawn) | Compound NOT metabolized
Nc1ccc(/N=N/c2ccccc2)c(N)n1 | Compound metabolized
CN1CCC(=C2c3ccccc3CCc3cccnc32)CC1.O=C(O)/C=C\C(=O)O.O=C(O)/C=C\C(=O)O [AZATADINE MALEATE] | Compound NOT metabolized
CC(C)(C)NC[C@H](O)COc1ccccc1C1CCCC1.CC(C)(C)NC[C@H](O)COc1ccccc1C1CCCC1.O=S(=O)(O)O [PENBUTOLOL SULFATE] | Compound NOT metabolized
COc1cc2c(c(OC)c1OC)-c1ccc(OC)c(=O)cc1[C@@H](NC(C)=O)CC2 | Compound NOT metabolized
CC(C)NCC(O)COc1ccc(COCCOC(C)C)cc1.CC(C)NCC(O)COc1ccc(COCCOC(C)C)cc1.O=C(O)/C=C/C(=O)O (stereo not drawn) [BISOPROLOL FUMARATE] | Compound NOT metabolized
CN1CCc2c(c3ccccc3n2Cc2ccccc2)C1.CN1CCc2c(c3ccccc3n2Cc2ccccc2)C1.O=S(=O)(O)c1cccc2c(S(=O)(=O)O)cccc12 | Compound NOT metabolized
Cc1ccnc2c1NC(=O)c1cccnc1N2C1CC1 | Compound NOT metabolized
Fc1ccc([C@@H]2CCNC[C@H]2COc2ccc3c(c2)OCO3)cc1 | Compound NOT metabolized
COc1cc2nc(N(C)CCCNC(=O)C3CCCO3)nc(N)c2cc1OC (stereo not drawn) | Compound NOT metabolized

Name the recorded Bacterial Biotransformation for OC(CCN1CCCCC1)(c1ccccc1)C1CCCCC1 (stereo not drawn) .
Compound NOT metabolized

Try this compound too: CCOC(=O)[C@H](CCc1ccccc1)N[C@H]1CCc2ccccc2N(CC(=O)O)C1=O
Compound metabolized

Try this compound too: COc1ccc(CCN(C)CCCC(C#N)(c2ccc(OC)c(OC)c2)C(C)C)cc1OC (stereo not drawn)
Compound NOT metabolized

Try this compound too: Cc1nc(-c2ccc(OCC(C)C)c(C#N)c2)sc1C(=O)O
Compound NOT metabolized

Try this compound too: CCC1(c2ccc(N)cc2)CCC(=O)NC1=O (stereo not drawn) [AMINOGLUTETHIMIDE]
Compound NOT metabolized

Try this compound too: CCCCCCOC(=O)/N=C(/N)c1ccc(NCc2nc3cc(C(=O)N(CCC(=O)OCC)c4ccccn4)ccc3n2C)cc1.CS(=O)(=O)O [DABIGATRAN ETEXILATE MESYLATE]
Compound NOT metabolized

Try this compound too: O=C(O)COCCN1CCN(C(c2ccccc2)c2ccc(Cl)cc2)CC1 (stereo not drawn)
Compound NOT metabolized

Try this compound too: CC(CN(C)C)CN1c2ccccc2CCc2ccccc21.O=C(O)/C=C\C(=O)O (stereo not drawn) [TRIMIPRAMINE MALEATE]
Compound NOT metabolized
